Assay: gradient 5% acetonitrile 3 min, to 50% in 2 min, to 85% in 15 min, held 3 min, 100 µL/min
Details: column: Zorbax Extend-C18 2.1 x 50 mm; eluents: water / acetonitrile, 0.1% formic acid
Measured attribute: RP-LC retention time (s)

Example entries and their recorded answers appear below.
RP-LC retention time in this record for CCC(=O)N1CCCC(c2ccnc(Nc3ccc(C)cc3)n2)C1 (centres undefined) : 827

Briefly, RP-LC retention time measured for Cc1ccc(S(=O)(=O)N2CCCC2c2nc(-c3cccc(F)c3)no2)cc1Cl (centres undefined) : 1230

The compound listed as `CCOC(=O)c1csc(NC(=O)Cc2ccc(S(=O)(=O)CC)cc2)n1` has a reported RP-LC retention time of 681

So for `Cc1[nH]c(C)c(S(=O)(=O)N2CCC(C(=O)N(C)C3CCCCC3)CC2)c1C(=O)N1CCCCC1` , the logged RP-LC retention time turned out to be 762

Per the records, this compound ( O=C(c1cccs1)N1CCCC1c1nc(-c2ccccc2)no1 (centres undefined) ) has RP-LC retention time equal to 946

Sample `Nc1cc(C2CCN(C(=O)c3ccc(F)cc3)CC2)no1` ; RP-LC retention time observed: 675

What the record says about `Cc1ccc(-n2nc(C)c(S(=O)(=O)N3CCN(c4ccccn4)CC3)c2C)cc1` : RP-LC retention time is 721

a = CC(C)NC(=O)C1CCCN(C(=O)Nc2ccc(NC(=O)Nc3ccc(F)cc3)cc2)C1 (centres undefined)
b = CCCOc1nc2ccccc2nc1N1CCCC(C(=O)NC2CCCCC2C)C1 (centres undefined)
Could you check which of a and b has a smaller value for RP-LC retention time? Output the label that corresponds to your choice. a
(a: 714 s, b: 1310 s)

====

Test: gradient 5% acetonitrile 3 min, to 50% in 2 min, to 85% in 15 min, held 3 min, 100 µL/min
Settings: column: Zorbax Extend-C18 2.1 x 50 mm; eluents: water / acetonitrile, 0.1% formic acid
Measured attribute: RP-LC retention time (s)

// below: answered compounds
Entry under test: `Cc1ccccc1OCCCC(=O)Nc1nc(-c2ccc(Br)cc2)cs1` . Its RP-LC retention time was 1280

Entry `CCOc1ccc(NC(=O)Nc2nccn(-c3ccccc3OC)c2=O)cc1` — recorded RP-LC retention time = 935

The reported value for Cc1ccc(-n2nc(C)c3sc(N4CCCC(C(=O)Nc5cccc(Cl)c5C)C4)nc32)cc1 (configuration not stated) in terms of RP-LC retention time is 1310

I = CCN1CCN(C(=O)CN2c3ccc(F)cc3-c3ccccc3S2(=O)=O)CC1
II = CCN(CC)S(=O)(=O)c1ccc2c(c1)cc(C(=O)NCCc1c[nH]c3ccccc13)n2C
Which of these two has the smaller recorded RP-LC retention time: I or II ? Reply with the label of the item you choose. I

A = COc1ccc(OCC2CN(C(=O)Cc3ccc(OC)c(OC)c3OC)CCO2)cc1 (configuration not stated)
B = CCOc1ccc(OCC)c(NC(=O)C2=C(C)C(=O)OC23CCCCCC3)c1
Lab note: check whether A or B has the lower measured RP-LC retention time. Refer to your chosen entry by its label in the reply. A
(A: 794 s, B: 1250 s)

P = Cn1cc(CN2CCCC(COc3ccccc3C(=O)N3CCOCC3)C2)c2ccccc21 (configuration not stated)
Q = CSc1ccccc1NC(=O)c1c(C)sc2ncnc(N3CCCC(C)C3)c12 (configuration not stated)
Lower RP-LC retention time: P or Q ? Use the label to indicate which entry you chose. P

P = COc1ccc(NC(=O)c2cnc3c(c2)c(=O)n(C)c(=O)n3-c2ccc(C)cc2)c(OC)c1
Q = COCC1CN(Cc2cn[nH]c2-c2ccc(OC)cc2)CCC1(F)F (configuration not stated)
So which one has the bigger RP-LC retention time here, P or Q ? Give the label of your selection. P
(P: 913 s, Q: 624 s)

a = CN1CCN(C(CNC(=O)C(=O)Nc2ccc(F)cc2F)c2ccc3c(c2)OCO3)CC1 (configuration not stated)
b = Fc1ccccc1-c1noc(Cc2nnc(-c3cccc(Br)c3)o2)n1
Could you determine which record has the numerically smaller RP-LC retention time? Candidates: a and b Your choice should be expressed through its label. a
(a: 685 s, b: 1110 s)

a = COC(=O)c1ccccc1NC(=O)C1CCCN(c2nnc(C)c3c(C)n(-c4ccccc4)nc23)C1 (configuration not stated)
b = CC1=C(c2ccc(C)c(C)c2)S(=O)(=O)N=C1N1CCC(NC(=O)NC(C)(C)C)CC1
Which has the higher RP-LC retention time, a or b ? Answer format: the label of the selected item. b
(b: 1350 s, a: 834 s)

P = COc1ccc2c(=O)cc(-c3cccnc3)oc2c1OC
Q = Cc1ccc(NC(=O)Cn2nc(N3CCC(C)CC3)c3ccccc3c2=O)cc1
So which one has the bigger RP-LC retention time here, P or Q ? Reply briefly: the label of your chosen item. Q

a = CC(C)c1nnc(C2CN(Cc3cccc(C(F)(F)F)c3)CC23CCN(C)CC3)o1 (configuration not stated)
b = Cc1nc(-c2cc(S(=O)(=O)Nc3ccc(Cl)cc3F)c(C)s2)cs1
// which entry reports the smaller RP-LC retention time, a or b ? To answer, give the label that identifies your chosen option. a

====

Assay: gradient 5% acetonitrile 3 min, to 50% in 2 min, to 85% in 15 min, held 3 min, 100 µL/min
Conditions: column: Zorbax Extend-C18 2.1 x 50 mm; eluents: water / acetonitrile, 0.1% formic acid
Measured attribute: RP-LC retention time (s)

I = O=[N+]([O-])c1ccc2[nH]c3nc4ccccc4nc3c2c1
II = O=C(NCCCN1CCCC1)C1CCN(c2cnc(N3CCCC3)nc2)CC1
Record comparison, field RP-LC retention time: mark the lower of I and II . Label of pick, please. II
(II: 542 s, I: 876 s)

====

Assay: gradient 5% acetonitrile 3 min, to 50% in 2 min, to 85% in 15 min, held 3 min, 100 µL/min
Conditions: column: Zorbax Extend-C18 2.1 x 50 mm; eluents: water / acetonitrile, 0.1% formic acid
Measured attribute: RP-LC retention time (s)

Recorded RP-LC retention time, per entry:
Record CCOC(=O)Cc1csc(NC(=O)C2CC(=O)N(c3n[nH]c4cccc(F)c34)C2)n1 (centres undefined) , field RP-LC retention time: 699

Record summary for COc1ccc(-c2noc(-c3nnn4c3COC(c3ccc(F)cc3)C4)n2)cc1 (centres undefined) : reported RP-LC retention time = 1120

# RP-LC retention time (compound: `O=S1(=O)C[C@H](N2CCN(c3ccccn3)CC2)[C@@H](S(=O)(=O)c2ccccc2)C1` ) is 598

Recorded RP-LC retention time (compound `CCOC(=O)c1nc(N2CCN(c3cc(C)ccc3C)CC2)c2ccccc2n1` ): 1120

For record `CC(C)(C)NC(=O)N1CCC(CNC(=O)c2ccc3nsnc3c2)CC1` the listed RP-LC retention time is 679

a = Cc1csc(-n2nc(C)c(CC(=O)Nc3ccccc3Cl)c2C)n1
b = CCc1ccc2oc(C(=O)NCC(c3cccs3)N(C)C)cc(=O)c2c1 (centres undefined)
Hello, I am sorting some records. Could you say if a or b has the smaller RP-LC retention time value? Answer by stating the label of the chosen item. b
(b: 654 s, a: 1010 s)

A = Cc1cc2nnc(SCC(=O)c3ccc4c(c3)OCO4)n2c2ccccc12
B = COc1ccc(-c2csc(Nc3ccc(Br)cn3)n2)cc1
Compare the recorded RP-LC retention time of A and B ; state which is larger. Please reply using the label of the selected record. B
(B: 1170 s, A: 793 s)

a = O=C(NCC1CCN(Cc2ccccc2)CC1)C(=O)Nc1ccc(OC(F)(F)F)cc1
b = Cc1cc(-c2nnc(-c3ccccc3)o2)c(C)n1CC(=O)Nc1ccc2c(c1)OCCO2
Between a and b , whose measured RP-LC retention time reads higher? // output: label of the selected item b

I = COc1cc(C=CC(=O)CC(=O)C=Cc2ccc(O)c(OC)c2)ccc1O
II = Cc1nc(NC(=O)CCn2cnc3ccccc3c2=O)sc1C(=O)N(C)C
Which has the smaller recorded RP-LC retention time, I or II ? Answer by stating the label of the chosen item. II
(II: 589 s, I: 891 s)

====

Assay: gradient 5% acetonitrile 3 min, to 50% in 2 min, to 85% in 15 min, held 3 min, 100 µL/min
Conditions: column: Zorbax Extend-C18 2.1 x 50 mm; eluents: water / acetonitrile, 0.1% formic acid
Measured attribute: RP-LC retention time (s)

For orientation, consider the following solved cases.
The reported RP-LC retention time of the compound `Cc1ccccc1OCC(=O)N1CCC2(CC1)NC(=O)N(Cc1ccccc1Cl)C2=O` was 909

The reported RP-LC retention time of the compound `Cc1ccc(CNC(=O)Cn2cnc3nc4c(cc3c2=O)CCCC4)cc1` was 728

Reported RP-LC retention time for Cc1ccc(NC(=O)C2CCCN2S(=O)(=O)c2cc3c(cc2Cl)NC(=O)CO3)c(C)c1 (centres undefined) was 868

The reported value for `Cc1cc(NC(=O)Cn2cnc(-c3cccs3)cc2=O)sn1` in terms of RP-LC retention time is 654

Value of measured RP-LC retention time for the entry `COc1ccc(Cl)cc1NC(=O)N1CCc2nc[nH]c2C1` : 604

I = O=C(c1cn(-c2ccc(-c3nc(C4CC4)no3)cn2)cn1)N1CCCC1
II = CCOC(=O)c1c(C)oc2nc(C)nc(N3CCN(c4ccccc4F)CC3)c12
Lab note: record which item had the higher RP-LC retention time, I or II . Bench note: the answer is the label of the chosen record. II

P = CNC(=O)[C@@H]1CN(C(=O)Cn2c(=O)oc3ccccc32)C[C@H]1COC
Q = CCOC(=O)c1ccc(NC2=NS(=O)(=O)C(c3ccc(F)cc3)=C2C)cc1
Hey, between P and Q which has a smaller measured RP-LC retention time? Choose, then provide that item's label. P
